Entry source: the RNAGym collection of RNA variant scans (doi:10.1073/pnas.2313332121)

# Lookup of reported polymerase ribozyme fitness (log ratio) keyed by entry
B1: TPR t1 (parent)
chain: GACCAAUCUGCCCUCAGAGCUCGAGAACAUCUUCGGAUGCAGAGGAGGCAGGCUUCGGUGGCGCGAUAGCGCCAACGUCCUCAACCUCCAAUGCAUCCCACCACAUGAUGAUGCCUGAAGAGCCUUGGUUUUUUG

- Variants of: B1
- experiment: polymerase ribozyme fitness, log enrichment relative to wild type (log ratio); higher = more active; in vitro selection for triplet polymerase activity

mutation annotation | polymerase ribozyme fitness (log ratio)
A5U C56A | -0.829
A6U A37G G71A | -0.537
U92A G110C | -6.13
U54G G60C U112A G117C | -5
A2C U9G G61U G110A | -2.69
A27U C72G | -3.21
C28U G61C U106A G113C | -5.31
C49U G113A | -1.68
C8U G120U | 1.14
A68G C114A | -3.39
U54G G93A A111U | -3.35
U55C G57U A66C C123G U132A | 0.759
C15U G63A C79A U112G | -5.66
U96A G117C | -5.1
C13G C124A | 1.06
G63C U81G | -4.28
A5U G63U A75U | -0.67
G45C G61C U131G | -1.96
G51C U129A | -5.21
A24U G61U | -6.34
U21C C56U C62A G63A A90C C101A U112C | -6.74
U38C A43G C73U G93A | -4.56
C64U C124G | 1.78
G47U C88G U96A U112A | -6.98
A26U G71C U131A | -4.6
U9C G17A A43U A50U A74C G120U | -4.05
A90U C114G G117A | -4.57
A41C G63C G77U A91G U96G A108G U112G | -6.24
C62G A95G U132C | -1.55
C34U C53U G61U G120A U132A | -3.26
A5G G36U G61A A111C A119C | -2.68
G71A A111G | -0.423
U9G U87C | -0.367
C12A C123G | 1.19
C12U C94A | -0.148
C4U A16U G42U U59G A84U | -4.24
G35A C72U | -4.58
G47A A75G U96C | -0.307
G61A G77A C89U U126A | -2.77
C11U U55G | -2.15
C4A A27G A75G G120U | -4.55
A5U C72G | -0.174
C56U C82G U130C | -0.672
C56A U59G A83G | -1.48
G10U A43G G47A A74G | -3.06
